system: L1210 leukemia ip in BDF1 mice, survival T/C; test: NCI In Vivo Anticancer Drug Screen. Data for tumor model L1210 Leukemia (intraperitoneal) in B6D2F1 (BDF1) mice; conditions: endpoint: mean survival time; dose: 100.0 mg/kg/injection; schedule: Q01DX009 (ip); vehicle: saline sonified; higher = longer survival
Inconclusive results and toxic doses are left out.
Assign T/C to each entry below.

// below: answered molecules
>  <Molecule>
CNC(CCc1ccccc1)C(=O)O (centres undefined)

>  <System Tested>
L1210 leukemia ip in BDF1 mice, survival T/C

>  <T/C>
98 % of control

$$$$
>  <Molecule>
O=[N+]([O-])c1ccc(S(=O)(=O)OCc2ccccc2OS(=O)(=O)c2ccc([N+](=O)[O-])cc2)cc1

>  <System Tested>
L1210 leukemia ip in BDF1 mice, survival T/C

>  <T/C>
100 % of control

$$$$
>  <Molecule>
CCCCCCCC/C=C\CCCCCCCC(=O)OCCCCCCCC

>  <System Tested>
L1210 leukemia ip in BDF1 mice, survival T/C

>  <T/C>
102 % of control

$$$$

Now consider a different molecule.
Q: Reported T/C, molecule O=C(O)c1ccc(C(Cl)(Cl)Cl)cc1 : ____
Ans: 115 % of control
